Experiment: Pharmacokinetics of aumolertinib and HAS-719 in SD rats
Details: Sprague-Dawley, rat, plasma, po, 11 mg/kg, CLz/F, carvedilol 5 mg/kg oral 0.5 h before aumolertinib 11 mg/kg oral (Car + Aum)
propertyMeasured: CL/F (mL/min/kg)
Write the answer as a number in mL/min/kg, unit excluded.

Query :: Please report the recorded CL/F for C=CC(=O)Nc1cc(Nc2nccc(-c3cn(C4CC4)c4ccccc34)n2)c(OC)cc1N(C)CCN(C)C .
Result :: 1150

* * *

Test: Pharmacokinetics of aumolertinib and HAS-719 in SD rats
Settings: Sprague-Dawley, rat, plasma, po, 11 mg/kg, AUC(0-∞), aumolertinib 11 mg/kg oral alone (Aum)
propertyMeasured: AUC(0-inf) (ng·h/mL)
Write the answer as a number in ng·h/mL, unit excluded.

Query :: Please report the recorded AUC(0-inf) for C=CC(=O)Nc1cc(Nc2nccc(-c3cn(C4CC4)c4ccccc34)n2)c(OC)cc1N(C)CCN(C)C .
Result :: 65.9
